For each of the compounds below, state its pest or weed control at 5 µg/cm2.
- Test system: Rhipicephalus microplus
- Test method notes: Rhipicephalus (Boophilus) microplus in-vitro contact test, larval cattle tick, strain Parkhurst (BOOPMI Cont)
- Type: in vivo
- Run parameters: application rate 5 μg/cm^2 (=500 g/ha), tick larvae, after 48 hours, read-out: activity (efficacy: 100% means all larvae are dead or moribund)
- Method: Rhipicephalus (Boophilus) Microplus—In-Vitro Contact Tests Larval Cattle Tick (Strain Parkhurst, Resistant Against Synthetic Pyrethroids) (BOOPMI Cont) 9 mg compound is solved in 1 mL acetone and diluted with acetone to the desired concentration. 250 μL of the test solution is filled in 25 mL glass test tubes and homogeneously distributed on the inner walls by rotation and tilting on a shaking device (2 h at 30 rpm). […]
Please respond with the number in % and leave the unit unwritten.

Identify the reported pest or weed control at 5 µg/cm2 for the following entry. Cc1nc([C@H](C)NC(=O)c2cc(C(F)(F)F)cc(C(F)(F)F)c2)n(-c2ccc(C(=O)N(C)CC#N)cn2)n1 100

Identify the reported pest or weed control at 5 µg/cm2 for the following entry. C[C@H](NC(=O)c1cc(OC(F)(F)F)cc(C(F)F)c1)c1ncnn1-c1ccc(C#N)cn1 100

Identify the reported pest or weed control at 5 µg/cm2 for the following entry. COc1nc([C@H](C)NC(=O)c2cc(OC(F)(F)F)cc(C(F)F)c2)n(-c2ccc(C#N)cn2)n1 100

Identify the reported pest or weed control at 5 µg/cm2 for the following entry. C[C@H](NC(=O)c1cc(Br)c(F)c(Br)c1)c1ncnn1-c1ccc(C#N)cn1 100

Identify the reported pest or weed control at 5 µg/cm2 for the following entry. CC(NC(=O)c1cc(Br)cc(Br)c1)c1nc(Cl)nn1-c1ccc(C#N)cn1 (stereo not drawn) 100

Identify the reported pest or weed control at 5 µg/cm2 for the following entry. C[C@H](NC(=O)c1cc(Cl)cc(OC(F)(F)F)c1)c1nc(C2CC2)nn1-c1ccc(C#N)cn1 100

Identify the reported pest or weed control at 5 µg/cm2 for the following entry. Cc1nc([C@H](C)NC(=O)c2cc(F)cc(C#N)c2)n(-c2ccc(C#N)cn2)n1 100

Identify the reported pest or weed control at 5 µg/cm2 for the following entry. Cc1nc([C@H](C)NC(=O)c2cc(Cl)cc(C(F)(F)C(F)(F)F)c2)n(-c2ccc(C#N)cn2)n1 100

Identify the reported pest or weed control at 5 µg/cm2 for the following entry. Cc1nc([C@H](C)NC(=O)c2cc(Cl)cc(Cl)c2)n(-c2cc(C#N)ccn2)n1 90

Identify the reported pest or weed control at 5 µg/cm2 for the following entry. C[C@H](NC(=O)c1cc(OC(F)F)cc(OC(F)F)c1)c1ncnn1-c1ccc(C#N)cn1 90

Identify the reported pest or weed control at 5 µg/cm2 for the following entry. Cc1nc([C@H](C)NC(=O)c2cc(C(F)(F)F)cc(C(F)(F)F)c2)n(-c2cc(C#N)ccn2)n1 100

Identify the reported pest or weed control at 5 µg/cm2 for the following entry. CC(C)Oc1nc([C@H](C)NC(=O)c2cc(Cl)cc(Cl)c2)n(-c2ccc(C#N)cn2)n1 90

----------
- Test system: Rhipicephalus sanguineus
- Test method notes: Rhipicephalus sanguineus in-vitro contact test, adult brown dog ticks (RHIPSA Cont)
- Format: in vivo
- Run parameters: 48 h, application rate 5 μg/cm^2 (=500 g/ha), after 48 hours, read-out: activity (efficacy: 100% means all ticks are dead or moribund)
Measured metric: pest or weed control at 5 µg/cm2, 500 g/ha (%)
Please respond with the number in % and leave the unit unwritten.

Identify the reported pest or weed control at 5 µg/cm2, 500 g/ha for the following entry. Cc1nc([C@H](C)NC(=O)c2cc(Br)cc(OC(F)(F)F)c2)n(-c2ccc(C#N)cn2)n1 100

Identify the reported pest or weed control at 5 µg/cm2, 500 g/ha for the following entry. CC(C)c1nc([C@H](C)NC(=O)c2cccc(Br)n2)n(-c2ccc(C#N)cn2)n1 80

Identify the reported pest or weed control at 5 µg/cm2, 500 g/ha for the following entry. Cc1nc([C@H](C)NC(=O)c2cc(C(F)(F)F)cc(C(F)(F)F)c2)n(-c2ccc(C(=O)N(C)CC(C)C)cn2)n1 100

Identify the reported pest or weed control at 5 µg/cm2, 500 g/ha for the following entry. CC(C)c1nc([C@H](C)NC(=O)c2cc(Cl)nc(C(F)(F)F)c2)n(-c2ccc(C#N)cn2)n1 100

Identify the reported pest or weed control at 5 µg/cm2, 500 g/ha for the following entry. C[C@H](NC(=O)c1cc(Cl)cc(C(F)(F)F)c1)c1ncnn1-c1cnc(C#N)cn1 80

Identify the reported pest or weed control at 5 µg/cm2, 500 g/ha for the following entry. CCSc1cc(C#N)cc(C(=O)N[C@@H](C)c2ncnn2-c2ccc(C#N)cn2)c1 100

Identify the reported pest or weed control at 5 µg/cm2, 500 g/ha for the following entry. C[C@H](NC(=O)c1cc(Cl)cc(OC(F)(F)F)c1)c1ncnn1-c1ncc(Cl)s1 100

Identify the reported pest or weed control at 5 µg/cm2, 500 g/ha for the following entry. C[C@H](NC(=O)c1cc(C(F)(F)F)cc(C(F)(F)F)c1)c1ncnn1-c1cc(C(=O)N(C)C)ccn1 80

Identify the reported pest or weed control at 5 µg/cm2, 500 g/ha for the following entry. CCc1nc([C@H](C)NC(=O)c2cc(Cl)cc(Cl)c2)n(-c2ccc(C#N)cn2)n1 100

Identify the reported pest or weed control at 5 µg/cm2, 500 g/ha for the following entry. Cc1nc([C@H](C)NC(=O)c2cc(Cl)cc(C(F)(F)F)c2)n(-c2cnc(C#N)cn2)n1 100

Identify the reported pest or weed control at 5 µg/cm2, 500 g/ha for the following entry. Cc1nc([C@H](C)NC(=O)c2cc(C(F)F)cc(C(F)F)c2)n(-c2ccc(C#N)cn2)n1 100

Identify the reported pest or weed control at 5 µg/cm2, 500 g/ha for the following entry. COCCN(C)C(=O)c1ccc(-n2nc(C)nc2[C@H](C)NC(=O)c2cc(C(F)(F)F)cc(C(F)(F)F)c2)nc1 100

Identify the reported pest or weed control at 5 µg/cm2, 500 g/ha for the following entry. Cc1nc([C@H](C)NC(=O)c2cc(C(F)(F)F)cc(C(F)(F)F)c2)n(-c2cc(C#N)ccn2)n1 100

Identify the reported pest or weed control at 5 µg/cm2, 500 g/ha for the following entry. C[C@H](NC(=O)c1cc(C(F)(F)F)cc(C(F)(F)F)c1)c1ncnn1-c1ncc(Br)s1 100

----------
- System: Rhipicephalus sanguineus
- Test method notes: Rhipicephalus sanguineus in-vitro contact test, adult brown dog ticks (RHIPSA Cont)
- Assay type: in vivo
- Run parameters: 48 h, application rate 5 μg/cm^2 (=500 g/ha), after 48 hours, read-out: activity (efficacy: 100% means all ticks are dead or moribund)
Measured metric: pest or weed control at 5 µg/cm2, 500 g/ha (%)
Please respond with the number in % and leave the unit unwritten.

Identify the reported pest or weed control at 5 µg/cm2, 500 g/ha for the following entry. C[C@H](NC(=O)c1cc(C(F)(F)F)cc(C(F)(F)F)c1)c1ncnn1-c1ccc(C(=O)N(C)CC(F)(F)F)cn1 100

Identify the reported pest or weed control at 5 µg/cm2, 500 g/ha for the following entry. C[C@H](NC(=O)c1cc(Br)cc(C(F)(F)F)c1)c1nc(C2CC2)nn1-c1ccc(C#N)cn1 80

Identify the reported pest or weed control at 5 µg/cm2, 500 g/ha for the following entry. C[C@H](NC(=O)c1cc(Br)c(F)c(Br)c1)c1ncnn1-c1ccc(C#N)cn1 80
